Origin of values: patent US12606528B2

// reported IC50 per item
Test system: TNF release
Assay: TNF assay: TNF release from LPS-stimulated human PBMCs (TNF ELISA)
Type: cell-based
Settings: PBMC; human PBMCs; compounds 2 hours before LPS (10 ng/ml) for 18 hours; supernatant TNF ELISA; read-out: IC50 (TNF assay)
Procedure: 25k THP1-NF-κB-LUC cells were dispensed into 384 well plate (per well). Cells were treated with compounds with various concentrations for 2 hours before addition of LPS (10 ng/mL) for 18 hours. Secreted luciferase activity were measured using quant-luc reagents (1 bag of luc reagent dilute to 40 mL, use 10 μL per well). Data were normalized to vehicle control and graphed. Compound IC50 towards inhibiting NF-κB were determined through Prism. […]
Readout label: IC50

Molecule: O=S(=O)(c1ccc(F)cc1)c1cnccc1O
Value measured: > 10 µM
//
Molecule: CC(C)CC1Oc2cc(S(=O)(=O)Nc3ccc(F)cc3Cl)c(Br)cc2NC1=O (stereo not shown)
Value measured: > 10 µM
//
Molecule: CCC1Oc2c(cc(Br)cc2S(=O)(=O)Nc2ccc(C)c(Cl)c2)N(C)C1=O (stereo not shown)
Value measured: 1 to 10 µM
//
Molecule: Cc1ccc(S(=O)(=O)c2c(O)[nH]c3ncccc3c2=O)cc1
Value measured: > 10 µM
